Data provenance is the Human Domainome abundance scans (Beltran et al. 2025).

Each entry below lists one item and its recorded abundance fitness value.
B1: SH3 and PX domain-containing protein 2B, residues 155 to 209; numbered along this chain, A1X283 (parent)
chain: EQYVVVANYQKQESSEISLSVGQVVDIIEKNESGWWFVSTAEEQGWVPATCLEGQ

Variants of: B1
Test: abundance fitness (aPCA) (normalised: wild type 0, dead -1); higher = more abundant; growth selection in yeast, the domain comes from the species named
Details: Homo sapiens
Keep it simple and answer with nothing but the number.

Value of measured abundance fitness for the entry EQYVVVANYQKQESSEISLSVGQVVDIIEKNESGWWFVSTAEEQGWVYATCLEGQ [P48Y] : -1.03

Sample EQYVVVANYQKQESSEISLSVGQVVDIIMKNESGWWFVSTAEEQGWVPATCLEGQ [E29M] ; abundance fitness observed: -0.417

Briefly, abundance fitness measured for EQYVVVANNQKQESSEISLSVGQVVDIIEKNESGWWFVSTAEEQGWVPATCLEGQ [Y9N] : -0.616

# variant EQYVVVANYQKQESSEISLSVGQVVDICEKNESGWWFVSTAEEQGWVPATCLEGQ [I28C] ; its abundance fitness = -0.13

Lab note: measured abundance fitness of EQYVVVNNYQKQESSEISLSVGQVVDIIEKNESGWWFVSTAEEQGWVPATCLEGQ [A7N] was -0.09

Value of measured abundance fitness for the entry EQYVVVANYQKQESSEISLSVGQVVDIIEKNESGWWFVSTAEEQGWVPATCLEGY [Q55Y] : -0.267

EQYVVVANYQKQESSEISLSVGQVVDIIEKNESGWWFVPTAEEQGWVPATCLEGQ [S39P] has a reported abundance fitness of -0.864

abundance fitness recorded for this variant, EQYVVCANYQKQESSEISLSVGQVVDIIEKNESGWWFVSTAEEQGWVPATCLEGQ [V6C] , is -0.151

For reference, reported abundance fitness for EQYVVVALYQKQESSEISLSVGQVVDIIEKNESGWWFVSTAEEQGWVPATCLEGQ [N8L] stands at -0.447

Noted for EQYVVVANYQKQESSEISLHVGQVVDIIEKNESGWWFVSTAEEQGWVPATCLEGQ [S20H] : its abundance fitness reads -0.01

Short answer for EQYVVVANYQKQESSEISLSVGQVVDIIEKNESGNWFVSTAEEQGWVPATCLEGQ [W35N] : abundance fitness was -0.193
